Reported z-score values for the following compounds.
Assay: JC-1 mitochondrial signal, unstimulated MM1S myeloma – cell-based, JC-1 fluorescence, 24 h, 100 nL compound, profiling panel (AID 1170); further: test concentration not given here
Settings: MM1S mitochondrial potential, higher = more signal

COMPOUND	z-score
C=CCC(OC(C)=O)[C@@H]1[C@@H](N(Cc2ccc(-c3cccc(C(F)(F)F)c3)o2)C(=O)c2ccc(-c3ccccc3)cc2)c2cc(OCCCO)ccc2N1C(=O)c1ccc2ccccc2c1 (stereo partly specified)	0.681
COC(=O)C1=CC(CCCO)=CC(c2cccs2)N(Cc2cc3c(cc2Br)OCO3)C=C1C(=O)OC (stereo unspecified)	0.398
COCCOC(=O)N1C(=O)[C@@]2(c3cc(C#Cc4ccc(OC)cc4)ccc31)[C@H](c1ccc(OCCO)cc1)N1[C@H](c3ccccc3)[C@H](c3ccccc3)OC(=O)[C@H]1[C@@H]2C(=O)NC[C@H](O)c1ccccc1	-1.52
C=CCOC(=O)[C@H]1[C@@H]2C(=O)O[C@@H](c3ccccc3)[C@@H](c3ccccc3)N2[C@@H](c2ccc(OCCOC(=O)[C@@H]3C[C@@H]4C(=O)N[C@@H](CCCC[N+](C)(C)C)C(=O)N4[C@@H]3c3ccc(O)cc3)cc2)[C@]12C(=O)Nc1ccc(I)cc12	-0.879
CN(C)CCCCNC(=O)[C@H]1C[C@H]2C(=O)N3CCC[C@H]3C(=O)N2[C@H]1c1cccc(OCCO)c1	0.0655
O=C(NCc1ccccc1)[C@@H]1c2ccccc2C(=O)N(Cc2ccc(OC(F)(F)F)cc2)[C@H]1c1ccc(CO)cc1	0.809
COC(=O)[C@@]1(Cc2ccc(OC)cc2)[C@H]2c3cc(C(=O)N4CCCC4)n(Cc4c(CO)[nH]cc(C)c4=O)c3C[C@H]2CN1C(=O)c1ccccc1	-1.19
COC(=O)[C@@]1(Cc2ccc(OC)cc2)[C@H]2c3cc(C(=O)N(C)C)[nH]c3C[C@H]2CN1C(=O)c1ccccc1	-0.488
COc1cc(C(O)C2C=CC3C(=O)N(c4ccccc4)C(=O)C3N2Nc2ccccc2F)cc(OC)c1OC (stereo unspecified)	0.142
COCCOC(=O)N1C(=O)[C@@]2(c3cc(C#CC4(O)CCCCCC4)ccc31)[C@H](c1ccc(O)cc1)N1[C@H](c3ccccc3)[C@H](c3ccccc3)OC(=O)[C@H]1[C@@H]2C(=O)N1CCCCCCC1	0.0446
COc1ccc(C(=O)Nc2cccc(CN3C(=O)[C@@]4(O[C@@H](CC(=O)N5CCC[C@H]5CO)[C@H]([Si](C)(C)c5ccc(OC)cc5)[C@H]4C)c4ccccc43)c2)cc1	-1.06
OCCCC1=CC(c2ccc(CN3CCCC3)cc2)N(Cc2cccc(OC(F)(F)F)c2)CC1 (stereo unspecified)	-2.38
CC(C)NC(=O)[C@@]1(c2ccc([N+](=O)[O-])cc2)CC(=O)N(CC23CC4CC(CC(C4)C2)C3)[C@@H]1c1ccc(CO)cc1	-0.24
O=C1C[C@@](C(=O)NC2CC2)(c2ccc([N+](=O)[O-])cc2)[C@@H](c2ccc(CO)cc2)N1C1CCCCC1	-1.18
C=C(COC)C(=O)CC[C@@H](OC(C)=O)c1ccccc1OCCO	-1.82
C=CCNC(=O)[C@H]1[C@@H]2C(=O)O[C@@H](c3ccccc3)[C@@H](c3ccccc3)N2[C@@H](c2ccc(OCCO)cc2)[C@]12C(=O)Nc1ccc(C#CC3(O)CCCCCC3)cc12	-0.535
CC(C)=C1C(=O)C(c2ccccc2)=C2CN3C(=O)N(CCc4ccccc4)C(=O)[C@]3(C)[C@H]21	-1.66
Cc1ccc(S[C@]2(C(=O)NC(C)C)CC(=O)N(C3CCCCC3)[C@@H]2c2ccc(CO)cc2I)cc1	-1.12
COc1ccc([Si](C)(C)[C@@H]2[C@@H](CC(=O)N3Cc4ccccc4C[C@H]3CO)O[C@]3(C(=O)N(Cc4cccc(N5CCOC5=O)c4)c4ccccc43)[C@H]2C)cc1	-1.01
COc1ccc(C(O)C2C=CC3C(=O)N(c4ccccc4)C(=O)C3N2Nc2ccc(C#N)cc2)cc1OCc1ccccc1 (stereo unspecified)	-0.222
C=C(CCCC)C(=O)CC[C@@H](OC(=O)c1ccccc1-c1ccccc1C(=O)O)c1ccccc1OCCO	-0.203
C=C(COC)C(=O)CC[C@@H](OC(=O)c1ccccc1-c1ccccc1C(=O)O)c1ccc(OCCO)cc1	0.0435
O=C1O[C@@H](c2ccccc2)[C@@H](c2ccccc2)N2[C@@H](c3ccc(OCCO)cc3)[C@]3(C(=O)Nc4ccc(C#CC5(O)CCCCCC5)cc43)[C@@H](C(=O)Nc3nc4ccccc4s3)[C@H]12	-0.344
Cc1ccc(F)cc1S(=O)(=O)N[C@H]1CCN(Cc2ccc(OC(C)C)cc2)C1	-1.41
C=CCOC(=O)[C@@H]1[C@H]2C(=O)O[C@H](c3ccccc3)[C@H](c3ccccc3)N2[C@H](c2ccc(OCCOC(=O)[C@H]3C[C@H]4C(=O)N[C@@H](CCCCN(C)C)C(=O)N4[C@H]3c3ccc(O)cc3)cc2)[C@@]12C(=O)Nc1ccc(I)cc12	-0.933
C=C(CCCC)/C(=C/C[C@@H](OC(C)=O)c1ccc(CO)o1)c1cnc2ccccc2c1	-1.12
